Source: PubChem BioAssay (NCI)

# Tested on: IGROV1 ovarian
# experiment.summary: NCI-60 one-dose screen, 48 h
# measurement.context: 10 µM unless noted
Compounds without any hit were thinned out: in the full panel of roughly 83,000, 20% have a hit. Activity calls are given as the source filed them. The calls were made as follows: active = growth percent below 10; inactive = the rest.
Hello, when you answer, please use one of the following outcomes: 1 (yes) = active, 0 (no) = inactive

| compound | label.value |
| --- | --- |
| COc1cc(-c2nc3occn3c2-c2ccnc(NCCNS(=O)(=O)c3ccc(Cl)cc3)n2)ccc1F | 0 (no) |
| COc1cc(C2CC(c3cccc(Nc4ccncc4)c3)=NN2c2cc(Cl)cc(Cl)c2)cc(OC)c1OC (stereo not drawn) | 1 (yes) |
| COC(=O)Nc1nc2ccc(C(=O)c3cccc(I)c3)cc2[nH]1 | 0 (no) |
| CCN1C(=O)/C(=c2\sc3n(c2=O)NC2C(N=3)N(CC)C(=O)N2CC)c2ccccc21 (stereo not drawn) | 0 (no) |
| CC(=O)NCCCS(=O)(=O)O | 0 (no) |
| Nc1nc(N)nc(NCc2ccccc2)n1 | 0 (no) |
| CCCC1C(C(=O)OCC)=C(N)Oc2cc(O)ccc21 (stereo not drawn) | 0 (no) |

(Q) // param item: CCN(CC)S(=O)(=O)c1cccc([N+](=O)[O-])c1 ; yields the recorded call
(A) 0 (no)

###

# Test system: SNB-75 CNS
# experiment.summary: NCI-60 one-dose screen, 48 h (100 = growth as untreated, 0 = no growth, -100 = all killed)
# measurement.context: 10 µM unless noted
The panel holds about 83,000 compounds, 20% with a hit somewhere; the sample as a whole holds those more often.
observation.type: growth (%)
Quick reminder: number only, in %, skip the unit.

| molecule | system | growth [%] |
| --- | --- | --- |
| CN1CCN(c2ccc(NC3=C(Cl)C(=O)c4ncccc4C3=O)cc2C#N)CC1 | SNB-75 CNS | 81.1 |

(Q) Let me know recorded growth for Clc1ccc2c(c1)c(-c1ccccc1)nc1nncn12 , thanks.
(A) 98.3

(Q) Please give measured growth of the following entry: O=C(O)c1cn(C2CC2)c2cc(N3CCN(C(=O)C[n+]4cccc5ccccc54)CC3)c(F)cc2c1=O
(A) 75.1

(Q) Note down growth recorded for O=C1OC(=O)C2C1CC=CC2c1ccccc1 (stereo unspecified)
(A) 83.7

(Q) Report growth, nothing else, for this molecule: Cc1[nH]c(C(=O)Nc2ccccc2OCc2cccc(C(=O)NCCN)c2)c(Cl)c1Cl
(A) 86.2

(Q) Complete the entry with growth for COc1ccc(/C=C\c2nc3ccccc3s2)cc1OP(=O)(O)O
(A) -2.05

(Q) Please look at this molecule and report its growth: CC1(C)NCCC[C@]2(C)[C@H]3CC=C4[C@@H]5C[C@@](C)(CO)CC[C@]5(C)CC[C@@]4(C)[C@]3(C)CC[C@@H]12
(A) 98.9

(Q) Look up and report measured growth for this entry: CCN(CC)CCCC(Nc1c2ccc(Cl)cc2nc2ccc(OC)cc12)c1ccc(Cl)cc1 (stereo unspecified)
(A) 16.7

(Q) Read off the recorded growth for Cc1cccc(Oc2ccc(Nc3ncnc4ccc(NC(=O)CNCCO)cc34)cc2Cl)c1
(A) 77.1

(Q) Please look at this molecule and report its growth: OC1(c2ccc(Cl)c(C(F)(F)F)c2)CCN(CCCC(c2ccc(F)cc2)c2ccc(F)cc2)CC1
(A) -66.3

(Q) Using the record for COc1ccc(Cl)cc1NC(=O)c1c(NC(=O)C(F)(F)C(F)(F)F)sc2c1CCCCC2 , state its measured growth.
(A) -9.76
